Cited source for all entries: patent US9181185B2

Item-by-item account of Ki
target.or.system: UniProtKB Q15858
Sequence (Q15858 other isoform, or with tags, fused parts or gaps): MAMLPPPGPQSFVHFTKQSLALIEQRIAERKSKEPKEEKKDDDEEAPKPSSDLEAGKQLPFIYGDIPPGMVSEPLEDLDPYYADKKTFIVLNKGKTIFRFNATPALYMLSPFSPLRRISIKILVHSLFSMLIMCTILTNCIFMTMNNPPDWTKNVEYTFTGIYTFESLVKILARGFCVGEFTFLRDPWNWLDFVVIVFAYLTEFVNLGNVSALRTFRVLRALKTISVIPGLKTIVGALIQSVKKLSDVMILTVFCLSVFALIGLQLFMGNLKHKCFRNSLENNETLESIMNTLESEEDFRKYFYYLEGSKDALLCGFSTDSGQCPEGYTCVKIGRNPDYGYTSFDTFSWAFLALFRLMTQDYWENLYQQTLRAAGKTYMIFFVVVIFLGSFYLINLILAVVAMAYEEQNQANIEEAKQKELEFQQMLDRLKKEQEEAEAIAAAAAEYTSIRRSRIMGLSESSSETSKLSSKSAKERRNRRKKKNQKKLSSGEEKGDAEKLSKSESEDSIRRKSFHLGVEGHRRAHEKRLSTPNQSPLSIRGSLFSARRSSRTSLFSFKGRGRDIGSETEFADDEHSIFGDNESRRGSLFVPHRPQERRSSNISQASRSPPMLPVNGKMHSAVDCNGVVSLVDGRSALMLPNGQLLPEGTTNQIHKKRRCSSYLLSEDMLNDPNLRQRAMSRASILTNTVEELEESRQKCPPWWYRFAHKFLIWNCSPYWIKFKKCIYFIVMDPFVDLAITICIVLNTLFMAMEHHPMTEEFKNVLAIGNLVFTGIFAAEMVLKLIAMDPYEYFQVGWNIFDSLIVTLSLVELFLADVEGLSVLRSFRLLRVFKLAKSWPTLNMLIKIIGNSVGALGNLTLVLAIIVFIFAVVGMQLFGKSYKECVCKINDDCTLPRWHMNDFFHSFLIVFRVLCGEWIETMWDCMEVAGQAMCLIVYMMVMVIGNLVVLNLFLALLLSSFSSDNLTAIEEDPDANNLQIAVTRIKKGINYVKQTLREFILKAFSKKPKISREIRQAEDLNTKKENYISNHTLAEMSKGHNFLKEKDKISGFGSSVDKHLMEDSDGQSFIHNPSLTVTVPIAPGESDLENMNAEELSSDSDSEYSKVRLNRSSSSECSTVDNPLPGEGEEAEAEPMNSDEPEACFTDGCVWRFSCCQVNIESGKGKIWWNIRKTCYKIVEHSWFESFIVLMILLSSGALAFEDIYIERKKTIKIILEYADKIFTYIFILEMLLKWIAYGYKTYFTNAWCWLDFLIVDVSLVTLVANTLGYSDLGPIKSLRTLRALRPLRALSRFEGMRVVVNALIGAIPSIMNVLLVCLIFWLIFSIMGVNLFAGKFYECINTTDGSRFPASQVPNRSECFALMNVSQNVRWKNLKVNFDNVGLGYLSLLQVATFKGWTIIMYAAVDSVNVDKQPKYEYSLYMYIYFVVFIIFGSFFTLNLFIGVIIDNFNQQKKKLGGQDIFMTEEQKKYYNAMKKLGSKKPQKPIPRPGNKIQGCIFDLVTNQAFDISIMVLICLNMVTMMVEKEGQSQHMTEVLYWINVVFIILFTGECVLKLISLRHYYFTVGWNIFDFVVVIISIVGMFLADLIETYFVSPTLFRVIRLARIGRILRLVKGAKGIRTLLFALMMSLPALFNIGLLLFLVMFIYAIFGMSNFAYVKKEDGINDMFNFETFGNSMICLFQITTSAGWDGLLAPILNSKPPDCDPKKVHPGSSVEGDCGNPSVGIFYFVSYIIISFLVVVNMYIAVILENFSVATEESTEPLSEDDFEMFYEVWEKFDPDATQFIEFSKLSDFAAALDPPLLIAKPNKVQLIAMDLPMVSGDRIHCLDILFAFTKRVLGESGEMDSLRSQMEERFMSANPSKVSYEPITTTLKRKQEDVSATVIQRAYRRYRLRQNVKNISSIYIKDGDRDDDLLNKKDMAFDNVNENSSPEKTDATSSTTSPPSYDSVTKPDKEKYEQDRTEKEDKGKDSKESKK
assay.name: Electrophysiology (EP) assay, whole-cell patch clamp
Format: cell-based
condition.summary: affinity for inactivated state; hNav1.7 HEK-293 cells; read-out: EP Nav 1.7 Ki (μM) ± SEM
Report the figure along with its unit, number first.

Lab note: measured Ki of N#Cc1cc(Oc2ccc(-c3cccc([C@H](O)[C@@H](O)C(N)=O)n3)cc2)ccc1C(F)(F)F [Compound 19] was 0.347 µM

Continuing:
Form: molecule = N#Cc1cc(Oc2ccc(-c3cccc([C@@H](O)[C@H](O)C(N)=O)n3)cc2)ccc1C(F)(F)F [Compound 15] ; Ki = 0.917 µM

Briefly, Ki measured for NC(=O)[C@H](O)[C@@H](O)c1ccnc(-c2ccc(Oc3ccc(F)cc3)cc2)n1 [Compound 26] : 2.26 µM
